- Experiment Notes: Inhibition of melanogenesis in mouse B16-4A5 cells at 30 uM after 72 hrs by spectrophotometry relative to control
- Format: functional
- Condition Description: B16-4A5, 72 h
Field: class. Source value: inhibition at 30 µM. Ranges: bottom end (below 20%), midrange (20% to below 60%), top end (60% or more)

Lookup: Bin? "COc1ccc(/C=C(C(=O)OC[C@H]2CC[C@](CO)(CCO)[C@@H](O)C2)\C(=C/c2ccc(OC)c(OC)c2)C(=O)OC[C@H]2CC[C@](CO)(CCO)[C@@H](O)C2)cc1"
Found: bottom end

Lookup: Query "O=C[C@]1(CCO[C@@H]2O[C@H](CO)[C@@H](O)[C@H](O)[C@H]2O)CC[C@H](COC(=O)C(=C/c2ccc(O)cc2)/C(=C\c2ccc(O)c(O)c2)C(=O)OC[C@H]2CC[C@](C=O)(CCO[C@@H]3O[C@H](CO)[C@@H](O)[C@H](O)[C@H]3O)[C@@H](O)C2)C[C@@H]1O" next
Found: midrange

Lookup: Query "COC(=O)C(=C/c1ccc(OC)cc1)/C(=C\c1ccc(OC)c(OC)c1)C(=O)OC" next
Found: midrange

Lookup: Query "O=C(OC[C@H]1CC[C@](CO)(CCO)[C@@H](O)C1)C(=C/c1ccc(O)cc1)/C(=C\c1ccc(O)c(O)c1)C(=O)OC[C@H]1CC[C@](CO)(CCO)[C@@H](O)C1" next
Found: midrange

Lookup: Query "CO[C@@H]1C[C@]2(CC[C@H](COC(=O)/C=C/c3ccc(O)c(O)c3)C[C@@H]2O)[C@@H](OC)O1" next
Found: top end

Lookup: Query "OC[C@H]1CC[C@](CO)(CCO[C@@H]2O[C@H](CO)[C@@H](O)[C@H](O)[C@H]2O)[C@@H](O)C1" next
Found: bottom end

Lookup: Query "CC(C)[C@H]1CC[C@]2(C)C(=O)CCC(C=O)=C[C@@H]12" next
Found: top end

Data origin, for the record: ChEMBL document CHEMBL3259598
